assay: qHTS assay to identify small molecule antagonists of the sonic hedgehog signaling (Shh) pathway - cell viability counter screen (AID 1259367); conditions: NIH/3T3 Gli1-Luc viability, CellTiter-Fluor, 24 h; series mostly up to 92.4 µM; also: nearly all actives have a fitted effect of over 55% in size
Inconclusive results are not listed. Activity calls are given as the source filed them. Calls follow the shape of the dose curve; as a rule, active = well fitted cell-killing curve with a large enough effect in the repeat runs; inconclusive = weak or mixed curves, or effect the other way; inactive = no such curve, though single readings can be large or run the other way.
Outcome codes: active, inactive

SMI: COc1cc(C=C2CCC/C(=C\c3ccc(O)c(OC)c3)C2=O)ccc1O
LABEL VALUE: active
--
SMI: O=C1OC(=O)c2cccc3cccc1c23
LABEL VALUE: inactive
--
SMI: O=C(O)CCCCCCC(=O)O
LABEL VALUE: inactive
--
SMI: Cc1oc(-c2ccccc2)nc1CCOc1ccc(C[C@H](Nc2ccccc2C(=O)c2ccccc2)C(=O)O)cc1
LABEL VALUE: active
--
SMI: CC(C)c1ccc(O)c(C(C)C)c1
LABEL VALUE: inactive
--
SMI: CCc1c(Br)c(Br)c(Br)c(Br)c1Br
LABEL VALUE: inactive
